// data source = patent US20210122730A1

TARGET OR SYSTEM: CYP2C8 (Homo sapiens)
Construct: Pooled human microsomes were obtained from Sekisui XenoTech, KS; tissue Sekisui XenoTech, KS; host or cells: pooled human liver microsomes
Sequence (P10632 whole entry): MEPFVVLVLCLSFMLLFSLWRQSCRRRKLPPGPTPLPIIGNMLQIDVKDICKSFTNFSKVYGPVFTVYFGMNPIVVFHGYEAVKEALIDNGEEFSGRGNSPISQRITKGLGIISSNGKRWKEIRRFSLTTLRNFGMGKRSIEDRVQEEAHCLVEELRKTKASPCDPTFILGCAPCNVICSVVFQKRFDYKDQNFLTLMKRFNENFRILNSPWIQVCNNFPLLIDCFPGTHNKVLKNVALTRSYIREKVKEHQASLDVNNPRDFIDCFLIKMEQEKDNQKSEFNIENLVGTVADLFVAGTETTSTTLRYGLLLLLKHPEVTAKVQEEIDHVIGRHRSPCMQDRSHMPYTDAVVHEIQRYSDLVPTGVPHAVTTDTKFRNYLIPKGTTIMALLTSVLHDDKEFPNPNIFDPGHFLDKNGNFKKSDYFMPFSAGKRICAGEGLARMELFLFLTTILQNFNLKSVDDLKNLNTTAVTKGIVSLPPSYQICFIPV
METHOD SUMMARY: CYP Inhibition Assay (CYP2C8, human liver microsomes, paclitaxel substrate)
Assay type: in vitro ADME
SETUP CONDITIONS: pH 7.4; pooled human liver microsomes 0.1 mg/mL, probe substrate paclitaxel
READOUT LABEL: inhibition at 5 min

Worked examples follow.
Cn1cnc(S(=O)(=O)N(C2CC2)[C@H]2CCC3=Cc4c(cnn4-c4ccc(F)cc4)C[C@]3(C(=O)c3cc(Cl)ccn3)C2)n1 : 25 to 50%
Cn1cc(S(=O)(=O)N(C2CC2)[C@H]2CCC3=Cc4c(cnn4-c4ccc(F)cc4)C[C@]3(C(=O)c3ncc(C(F)(F)F)s3)C2)nn1 : 25 to 50%
Cn1ccc(S(=O)(=O)N(C2CC2)[C@H]2CCC3=Cc4c(cnn4-c4ccc(F)cc4)C[C@]3(C(=O)c3cc(Cl)ccn3)C2)n1 : 50 to 75%
Cn1cnc(S(=O)(=O)N(C2CC(F)(F)C2)[C@H]2CCC3=Cc4c(cnn4-c4ccc(F)cc4)C[C@]3(C(=O)c3cc(F)ccn3)C2)c1 : ≤ 25%
O=C(c1cc(C(F)(F)F)ccn1)[C@]12Cc3cnn(-c4ccc(F)cc4)c3C=C1CC[C@H](N(C1CC1)S(=O)(=O)c1cncc(Cl)c1)C2 : 50 to 75%

// input: 8 molecules below; output: inhibition at 5 min for each
1. Cn1cc(S(=O)(=O)N(CC(F)(F)F)[C@H]2CCC3=Cc4c(cnn4-c4ccc(F)cc4)C[C@]3(C(=O)c3ncc(C(F)(F)F)s3)C2)cn1
2. O=C(c1cc(C(F)F)ccn1)[C@]12Cc3cnn(-c4ccc(F)cc4)c3C=C1CC[C@H](N(C1CC1)S(=O)(=O)c1ccc(F)cc1)C2
3. CCN([C@H]1CCC2=Cc3c(cnn3-c3ccc(F)cc3)C[C@]2(C(=O)c2cc(C(F)(F)F)ccn2)C1)S(=O)(=O)c1ccn(C)n1
4. Cn1cnc(S(=O)(=O)N(CC(F)F)[C@H]2CCC3=Cc4c(cnn4-c4ccc(F)cc4)C[C@]3(C(=O)c3ncc(C(F)(F)F)s3)C2)n1
5. Cn1ccc(S(=O)(=O)N(C2CC2)[C@H]2CCC3=Cc4c(cnn4-c4ccc(F)cc4)C[C@]3(C(=O)c3cc(C(F)(F)F)ccn3)C2)n1
6. CCn1ccc(S(=O)(=O)[C@H]2CCC3=Cc4c(cnn4-c4ccc(F)cc4)C[C@]3(C(=O)c3ccc(C(F)(F)F)cn3)C2)n1
7. Cn1ncc(S(=O)(=O)N(C2CC2)[C@H]2CCC3=Cc4c(cnn4-c4ccc(F)cc4)C[C@]3(C(=O)c3cc(Cl)ccn3)C2)n1
8. CCN([C@H]1CCC2=Cc3c(cnn3-c3ccc(F)cc3)C[C@]2(C(=O)c2ncc(C(F)(F)F)s2)C1)S(=O)(=O)c1cnn(C)c1

Reply |
["50 to 75%", "50 to 75%", "25 to 50%", "≤ 25%", "50 to 75%", "25 to 50%", "50 to 75%", "50 to 75%"]

For every item below, please supply its inhibition at 5 min.
1. CCN([C@H]1CCC2=Cc3c(cnn3-c3ccc(F)cc3)C[C@]2(C(=O)c2ncc(C(F)(F)F)s2)C1)S(=O)(=O)c1ccn(C)n1
2. Cn1ccc(S(=O)(=O)N(CC(C)(C)O)[C@H]2CCC3=Cc4c(cnn4-c4ccc(F)cc4)C[C@]3(C(=O)c3cc(C(F)(F)F)ccn3)C2)n1
3. CN([C@H]1CCC2=Cc3c(cnn3-c3ccc(F)cc3)C[C@]2(C(=O)c2cc(C(F)(F)F)ccn2)C1)S(=O)(=O)c1ccc(F)cc1
4. CC(C)N([C@H]1CCC2=Cc3c(cnn3-c3ccc(F)cc3)C[C@]2(C(=O)c2ncc(C(F)(F)F)s2)C1)S(=O)(=O)c1cn(C)nn1
5. Cn1cnc(S(=O)(=O)N(C2CC2)[C@H]2CCC3=Cc4c(cnn4-c4ccc(F)cc4)C[C@]3(C(=O)c3cc(Cl)ccn3)C2)c1

Reply |
1: 75 to 90%; 2: 25 to 50%; 3: 25 to 50%; 4: 25 to 50%; 5: 25 to 50%
